# Test system: CCRIS mutagenicity, Ames/micronucleus/aberration tests
# TEST SUMMARY: CCRIS mutagenicity studies
# TEST SETTINGS: Test System: AMES SALMONELLA TYPHIMURIUM; Strain/Indicator: TA100; Metabolic Activation: HAMSTER, LIVER, S-9, AROCLOR 1254; Method: STANDARD PLATE
Activity calls are given as the source filed them. How the calls were made is not given here.
Please reply with one of these outcomes: class 1 (active), class 0 (inactive)

Input: Dear colleague, could you share the recorded outcome for C=C(C)OC(C)=O when you have a moment?
Output: class 0

Input: Tell me the recorded outcome of this test for Nc1ncnc2c1ncn2[C@H]1CC[C@@H](CO)O1 .
Output: class 0

Input: Hi, sorry to bother you, what did the test record for CC(=O)c1ccccn1 ?
Output: class 0

Input: Per the assay record, what outcome was assigned to O=C(O)c1cc(=O)c2c(OCC(O)COc3cccc4oc(C(=O)O)cc(=O)c34)cccc2o1 ?
Output: class 0

Input: Each molecule tested received a call. Report the one for Cc1c(C(=O)O)c(O)cc2c1C(=O)c1c(O)c([C@@H]3O[C@H](CO)[C@@H](O)[C@H](O)[C@H]3O)c(O)c(O)c1C2=O .
Output: class 0
